biological target: human Claudin-6 (CLDN6) (human) (UniProt P56747); test: FACS titration of labelled mAb on OVCA429 cells (endogenous CLDN6+)
value.type: pEC50
Answers are plain numbers, as −log10 of the molar value.

Examples with answers:
binder: AB13 (antibody, V domains shown) VH: QVQLQQSGAELVRPGTSVKVSCKASGYAFSNYLIEWVKQRPGQGLEWIGVINPGSGGTNYNEKFKGKATMTADKSSSTAYMHLSNLTSEDSVVYFCARSYFGRSYPYTMDYWGQGTSVTVSS VL: EIVLTQSPTTMAASPGEKITITCSASSSISSNYLHWYQQKPGFSPKLLIYRTSNLASGVPARFSGSGSGTSYSLTIGTMEAEDVATYYCQQGSSIPLTFGAGTKLELK
value.type: pEC50
recorded.measurement: 5.64
--
binder: AB5 (antibody, V domains shown, full-length IgG (ExpiCHO)) VH: EVQLQQSGPELVKPGASVKMSCKASGYIFTHYIMHWVKQKPGQGLEWIGCINPYNDGTKYNEKFKGKATLTSDKSSSTAYMELSSLTSEDSAVYYCARYYGYPYYSMDYWGQGTSVTVSS VL: DVLMTQTPLSLPVSLGDQPSISCRSSQSIVHSNGNTYLDWYLQKPGQSPKLLIYKVSNRFSGVPDRFSGSGSGTDFTLKISRVEAEDLGVYYCFQGSHVPFTFGSGTRLEIK
value.type: pEC50
recorded.measurement: 8.30
--
binder: AB1-6 (antibody, V domains shown, humanized) VH: QVQLVQSGAEVKKPGASVKMSCKASGYTFTTYTMHWVRQAPGQGLEWIGFINPSSGYTDYAQKFQGRVTLTADTSTSTVYMELSSLRSEDTAVYYCANGDYYVAYWGQGTLVTVSS VL: DIQMTQSPSSLSASVGDRVTITCTASSSVSSTYFHWYQQKPGKAPKLLIYSTSNLASGVPSRFSGSGSGTDYTLTISSLQPEDFATYYCHQYHRSPLTFGQGTKLEIK
value.type: pEC50
recorded.measurement: 5.30

For every listed record, write down its pEC50.
1. AB19 (antibody, V domains shown) VH: EVQLQQSGPELVKPGGSMKISCKASGYSFTGYTMNWVKRSHGKNLEWIGLINPYNGVTTYNQNFKGKATLAVDKSSSTAYMELLGLTSEDSAVYYCTRDPLYYGYRDSTMDYWGQGTSVTVSS VL: NIMMTQSPSSLAVSAGEKVTMSCKSSQSVLFSSNQKNYLAWYQQKPGQSPRLLIYWASTRESGVPDRFTGSGSGTDFTLTISNVQAEDLAVYYCHQYLSSRTFGAGTKLELK
2. AB6 (antibody, V domains shown, full-length IgG (ExpiCHO)) VH: DVQLQESGPGLVKSSQSLSLTCSVTGYSITSGYYWKWIRQFPGNKLEWMGYISYDGGINYNPSLKNRISITRDTSKNQFFLKLNSVTTEDTAKYYCARFGKGAMDYWGQGTSVTVSS VL: AIVMFQSPSSLVVSAGEKVTMSCKSSQSLLNSRTRKNYLAWYQQKPGQSPKLLIYWASTRESGVPDRFTGSGSGTDFTLTISSVQAEDLAVYYCKQSYYLYTFGGGTKLEIK

[A]
1. 5.30
2. 6.40
